# Tested on: K-562 leukemia
# protocol-text: NCI tumour cell line growth inhibition, 48 h; in the data active means GI50 below about 0.43 µM; inactive means the rest
Your answer must be one of the following: 1 (yes) for active, 0 (no) for inactive

Example entries begin here.
chemical_smiles=COc1ccc2c(c1)C(=O)c1c-2n(CCCn2ccnc2)c(=O)c2ccccc12 study_target="K-562 leukemia" assigned_class="0 (no)"
chemical_smiles=CN(C)CCCn1c2c(c3ccccc3c1=O)C(=O)c1ccccc1-2 study_target="K-562 leukemia" assigned_class="0 (no)"
chemical_smiles=CCN(CC)CCN1CC(O)=C(c2nc(-c3ccc(Cl)cc3)cs2)C1=N study_target="K-562 leukemia" assigned_class="0 (no)"
chemical_smiles=CC/C=C\C[C@@H]1C/C=C2/C(=O)C=C[C@H]2C/C=C\CCCC(=O)O1 study_target="K-562 leukemia" assigned_class="1 (yes)"

### Prompt GET /call?item= "Cc1ccc(/C(=C/C=C(C#N)C#N)Sc2ccc(Cl)cc2)cc1" returns the recorded outcome of this test.
### Response 0 (no)

###

# System: TK-10 renal
# protocol-text: NCI tumour cell line growth inhibition, 48 h
reported-endpoint: GI50

chemical_smiles=CC/C=C\C[C@@H]1C/C=C2/C(=O)C=C[C@H]2C/C=C\CCCC(=O)O1 reported_endpoint=GI50 readout_value="1.48 µM"

GET /values?item= "COc1cc[nH]c1/C=C1\C(=O)Nc2ccccc21" &system= TK-10 renal returns GI50: 6.71 µM

GET /values?item= "CCS(=O)(=O)c1ccc(OC)c(Nc2ncc(-c3cccc(OC)c3)o2)c1" &system= TK-10 renal returns GI50: 6.5 µM

GET /values?item= "O=C(c1cccc(O)c1O)c1cn(Cc2ccc(F)cc2)c2cccc(O)c12" &system= TK-10 renal returns GI50: 7.01 µM

GET /values?item= "N.N.N.N.N.O=C([O-])c1nn[n-]n1.[Cl-].[Co+3]" &system= TK-10 renal returns GI50: > 100 µM

GET /values?item= "CCN(CC)c1ccc(C(=N)c2ccc(N(CC)CC)cc2)cc1" &system= TK-10 renal returns GI50: 0.896 µM

###

# Test system: NCI-H460 lung
# protocol-text: NCI tumour cell line growth inhibition, 48 h
Catalogue of TGI readings, one per entry.

Here is how some molecules turned out for TGI.
molecule=COc1nn(Cc2ccccn2)c2ccc([N+](=O)[O-])cc12 reported_endpoint=TGI readout_value="> 100 µM"
molecule=NC(N)=NCCCn1c2c(c3ccccc3c1=O)C(=O)c1ccccc1-2 reported_endpoint=TGI readout_value="> 100 µM"
molecule=Fc1cc(F)c(COc2cc(Cn3cnc4c(Cl)nc(Cl)nc43)ccc2C23CC4CC(CC(C4)C2)C3)cc1F reported_endpoint=TGI readout_value="37.5 µM"

Reported TGI of "CCN(CC)c1ccc(C(=N)c2ccc(N(CC)CC)cc2)cc1" : 1.56 µM

Reported TGI of "O=[N+]([O-])/C(C(Cl)=C(Cl)Cl)=C1\Nc2ccc([N+](=O)[O-])cc2N1" : > 100 µM

Reported TGI of CC1CN1CC(O)C(O)CN1CC1C (configuration not stated) : 13 µM

Reported TGI of "O=C1c2ccccc2-c2nnc(-c3ccc([N+](=O)[O-])cc3)cc21" : > 10 µM

Reported TGI of "COc1cc2c(/C=C3/C(=O)Nc4ccc(O)cc43)c(Cl)n(Cc3ccccc3)c2cc1C" : > 43.4 µM

Reported TGI of O=C(O)CP(=S)(S)c1ccccc1 (configuration not stated) : > 100 µM

Reported TGI of NC1C/C(=N\O)c2c(Cl)sc(Cl)c21 (configuration not stated) : 43.3 µM

###

Catalogue of TGI readings, one per entry.
# System: OVCAR-3 ovarian
# protocol-text: NCI tumour cell line growth inhibition, 48 h

Here is how some compounds turned out for TGI.
compound="C=C(C)C1CC=C(C)C(=O)C1 (stereo unspecified)" reported_endpoint=TGI readout_value="> 100 µM"
compound=COc1ccc(C(=O)COc2cccc(/C=C3\COc4ccc5ccccc5c4C3=O)c2)cc1 reported_endpoint=TGI readout_value="11.5 µM"
compound="COc1c2c(cc3nc4ccccc4nc13)CCC(C(C)(C)O)C2 (stereo unspecified)" reported_endpoint=TGI readout_value="> 100 µM"

GET /values?item= O=C1CC(Br)c2c(Br)sc(Br)c21 (stereo unspecified) &system= OVCAR-3 ovarian returns TGI: 32.9 µM

GET /values?item= "Cn1c(-c2cccs2)cc(-c2cccs2)c1-c1cccs1" &system= OVCAR-3 ovarian returns TGI: > 100 µM

GET /values?item= "COC(=O)c1cc(Br)c(Br)n1C" &system= OVCAR-3 ovarian returns TGI: > 100 µM

###

# Test system: KM20L2 colon
# protocol-text: NCI tumour cell line growth inhibition, 48 h
reported-endpoint: TGI

molecule=O=c1cccccc1NCCCNc1cccccc1=O readout_value="> 100 µM"
molecule="CCC1(O)C(=O)OCc2c1cc1n(c2=O)Cc2cc3ccc(C=O)cc3nc2-1 (centres undefined)" readout_value="> 50.3 µM"
molecule=O=C(O)CN(c1ccccc1)S(=O)(=O)c1ccccc1[N+](=O)[O-] readout_value="> 100 µM"
molecule=Cc1ccc2nc3c(C(=O)NCCN(C)C)cccc3nc2c1 readout_value="18.2 µM"
molecule=CC(C)N(C(=O)C12CC3CC(CC(C3)C1)C2)C(C)C readout_value="> 50 µM"

Reported TGI of N#Cc1nc(C2OC(COC(=O)c3ccccc3)C(OC(=O)c3ccccc3)C2OC(=O)c2ccccc2)oc1N (centres undefined) : > 100 µM

Reported TGI of "CN(C)P(=O)(/C(N)=N/Nc1ccc([N+](=O)[O-])cc1)N(C)C" : > 100 µM

Reported TGI of "Cc1cc(C)nc(NS(=O)(=O)c2ccc(Nc3c4ccccc4nc4c(C(=O)Nc5ccc(S(=O)(=O)Nc6cc(C)on6)cc5)cccc34)cc2)n1" : 44.4 µM

###

Catalogue of TGI readings, one per entry.
# System: SF-295 CNS
# protocol-text: NCI tumour cell line growth inhibition, 48 h

Here is how some molecules turned out for TGI.
molecule=O=C(c1cccc(O)c1O)c1cn(Cc2ccc(F)cc2)c2cccc(O)c12 reported_endpoint=TGI readout_value="> 46.5 µM"
molecule=Cc1ccc(N(C(=O)CC(=O)NN)C(=O)c2ccccc2Cl)cc1 reported_endpoint=TGI readout_value="> 100 µM"
molecule="CC(NC(=O)OCc1ccccc1)NC(=O)OC(C)(C)C (configuration not stated)" reported_endpoint=TGI readout_value="> 100 µM"
molecule="CC1CN1CC(O)C(O)CN1CC1C (configuration not stated)" reported_endpoint=TGI readout_value="> 33.4 µM"
molecule=CC(C)N(C(=O)C12CC3CC(CC(C3)C1)C2)C(C)C reported_endpoint=TGI readout_value="> 50 µM"
molecule=COc1ccc2c(c1)C(=O)c1c-2n(CCCn2ccnc2)c(=O)c2ccccc12 reported_endpoint=TGI readout_value="2.13 µM"
molecule="N#Cc1nc(C2OC(COC(=O)c3ccccc3)C(OC(=O)c3ccccc3)C2OC(=O)c2ccccc2)oc1N (configuration not stated)" reported_endpoint=TGI readout_value="> 100 µM"
molecule=Cn1cc(C(=O)c2ccccc2)ccc1=O reported_endpoint=TGI readout_value="> 100 µM"
molecule=Cc1noc(C)c1CCCOC1COc2ccccc2OCCOCCOc2ccccc2OC1 reported_endpoint=TGI readout_value="> 100 µM"
molecule=Cc1cc(C)c(C(=O)CC(=O)c2cccnc2)c(C)c1 reported_endpoint=TGI readout_value="83.5 µM"

Reported TGI of "O=c1cccccc1NCCCNc1cccccc1=O" : > 100 µM

Reported TGI of "CCOC(=O)C1(CO)CSCCSC1" : > 100 µM

Reported TGI of "COC(=O)c1cc(Br)c(Br)n1C" : > 100 µM

Reported TGI of O=S(=O)(/N=S(/Nc1ccccc1)C(Cl)Cl)c1ccccc1 (configuration not stated) : > 100 µM

Reported TGI of CCC(C)C(=O)OC1C(=O)OC2CC3C(C)=CC(=O)C(O)C3(C)C3C4(O)OCC23C1C(C)C4O (configuration not stated) : 0.126 µM

Reported TGI of CC(=O)NC1C(OCc2ccccc2)OC(CO)C(O)C1OC(C)C(=O)NC(C(=O)NC(CCC(=O)NCCCC(=O)Nc1ccc2c(c1)CN1C(=O)c3ccccc3C1=N2)C(N)=O)C(C)C (configuration not stated) : > 100 µM

Reported TGI of "Nc1ccc(/C=C/c2ccnc3ccccc23)cc1" : 46.1 µM

Reported TGI of "CCOC(=O)c1cc(/C(=N\O)c2cc(OC)c(OC)c(OC)c2)n2cc(C)cc(C)c12" : 5.25 µM

Reported TGI of "CC(C)=CCC/C(=C/CC/C(C)=C/CCc1ccoc1)C(=O)O" : > 100 µM

Reported TGI of Cc1c(N=Nc2ccccc2)c(-c2ccccc2)n(C2OC(CO)C(O)C(O)C2O)c(=S)c1C#N (configuration not stated) : 55.8 µM

Reported TGI of "C=CCN1C(=O)/C(=C/c2ccc(Cl)cc2)N=C1SC/C=C/C" : > 100 µM

Reported TGI of "COC(=O)/C(C)=N/NC(=S)SC" : > 100 µM
